- protocol-text: clinical
- run-parameters: human, in vivo, 200 mg, Cmax steady state, mean
reported-property: Cmax (ng/mL)
Write the answer as a number in ng/mL, unit excluded.

If you can, please state the reported Cmax value of "O=C(c1cccnc1-c1ccncc1)N1CCC(O)(Cc2ccccc2)CC1" . 640

====

- protocol-text: Healthy Japanese subjects, Part 2 (100, 200, 300 mg BID up-titration): PK of TAK-935 and M-I
- Type: in vivo, human
- run-parameters: human, plasma, oral, 200 mg, Day 14 (200 mg BID), Part 2, Median; read-out: Cmax
reported-property: Cmax (ng/mL)
Numbers only; they are read as ng/mL.

Report Cmax for O=C(c1cccnc1-c1ccncc1)N1CCC(O)(Cc2ccccc2)CC1 [soticlestat] please. 1030

====

- protocol-text: Healthy Japanese subjects, Part 1 (single dose 200, 600, 1200 mg tablets): PK of TAK-935 and M-I
- Format: in vivo, human
- run-parameters: human, oral; TAK-935 600 mg single dose, plasma, mean; read-out: t1/2z (terminal disposition phase half-life) (converted)
reported-property: half-life (h)
Lab book: enter the figure in h, no units written.

What measured half-life goes with O=C(c1cccnc1-c1ccncc1)N1CCC(O)(Cc2ccccc2)CC1 [soticlestat] ? 8.7

====

- protocol-text: Healthy Japanese subjects, Part 1 (single dose 200, 600, 1200 mg tablets): PK of TAK-935 and M-I
- Assay type: in vivo, human
- run-parameters: human, plasma, oral; TAK-935; single dose 600 mg
reported-property: Cmax

I would be grateful if you could share the reported Cmax for "O=C(c1cccnc1-c1ccncc1)N1CCC(O)(Cc2ccccc2)CC1" . 3280 ng/mL

====

- protocol-text: Healthy Japanese subjects, Part 2 (100, 200, 300 mg BID up-titration): PK of TAK-935 and M-I
- Assay type: in vivo, human
- run-parameters: human, plasma, oral, 100 mg, Day 1 (100 mg BID), Part 2, Mean; read-out: Tmax
reported-property: Tmax
Kindly report the value followed by its unit.

Any idea what its Tmax is? The compound is O=C(c1cccnc1-c1ccncc1)N1CCC(O)(Cc2ccccc2)CC1 [soticlestat] 52.5 min

====

- protocol-text: Healthy Japanese subjects, Part 2 (100, 200, 300 mg BID up-titration): PK of TAK-935 and M-I
- Assay type: in vivo, human
- run-parameters: human, plasma, oral, 200 mg, Day 14, TAK-935 200 mg BID, plasma, mean; read-out: t1/2z (terminal disposition phase half-life) (converted)
reported-property: half-life (min)
Kindly answer with a numeric value in min, unit omitted.

# input compound: "O=C(c1cccnc1-c1ccncc1)N1CCC(O)(Cc2ccccc2)CC1" ; wanted: its half-life 157

====

- protocol-text: Healthy Japanese subjects, Part 2 (100, 200, 300 mg BID up-titration): PK of TAK-935 and M-I
- Format: in vivo, human
- run-parameters: human, plasma, oral, 100 mg, Day 7, TAK-935 100 mg BID, plasma, median; read-out: tmax
reported-property: Tmax (min)
Report only the number, with the unit min understood.

Record request: Tmax value, item O=C(c1cccnc1-c1ccncc1)N1CCC(O)(Cc2ccccc2)CC1 [soticlestat] 30

====

- protocol-text: clinical
- Assay type: in vivo
- run-parameters: both sexes, human, in vivo, po, 15 mg
reported-property: Tmax (min)
Quick reminder: number only, in min, skip the unit.

Fill in the blank: the reported Tmax of "O=C(c1cccnc1-c1ccncc1)N1CCC(O)(Cc2ccccc2)CC1" is ____. 15
